- Reported conditions: in isopentanol, 293.15 K
Readout: solubility (mole fraction)
Note: the reply should be a number with no unit written.

Item: "CC(=O)N[C@@H](Cc1ccc(O)cc1)C(=O)O" | solubility (mole fraction): 0.0487

----------
- Reported conditions: in sec-butanol, 318.15 K
Readout: solubility (mole fraction)

GET /value?item= "CC(=O)N[C@@H](Cc1ccc(O)cc1)C(=O)O" &field=solubility (mole fraction) returns 0.146

----------
- Reported conditions: in n-butanol, 298.15 K
Readout: solubility (mole fraction)
Just the number.

Reported solubility (mole fraction) ( "CC(=O)N[C@@H](Cc1ccc(O)cc1)C(=O)O" ) = 0.0715
